This section presents compounds with their documented IC50 values.
molecular target: recombinant SARS-CoV-2 Main protease (Mpro) (Severe acute respiratory syndrome coronavirus 2 (2019-nCoV) (SARS-CoV-2)); assay: Cov Mpro Biochemical IC50 Assay; conditions: recombinant SARS-CoV-2 Mpro 7.5 nM, fluorogenic peptide substrate 40 μM; read-out: MPro IC50

[
  {
    "compound": "N#CCCn1c(=O)n(-c2cnccn2)c(=O)c2sc(-c3ccc(F)cc3C#N)cc21",
    "signQualifier": "=",
    "IC50 (nM)": 420
  },
  {
    "compound": "Cn1ncc(-c2cccc(Cl)c2-c2cc3[nH]c(=O)n(-c4cncc5ccccc45)c(=O)c3s2)c1C(F)(F)F",
    "signQualifier": "=",
    "IC50 (nM)": 15.7
  },
  {
    "compound": "COc1ccc(Cl)c(-c2cc3[nH]c(=O)n(-c4cncc5ccc(C(=O)N6CCOCC6)cc45)c(=O)c3s2)c1",
    "signQualifier": "=",
    "IC50 (nM)": 9.83
  },
  {
    "compound": "COc1cc(-c2cc3[nH]c(=O)n(-c4cncc5ccccc45)c(=O)c3s2)c(Cl)cc1F (single isomer, unassigned) [Example 556]",
    "signQualifier": "=",
    "IC50 (nM)": 3.41
  },
  {
    "compound": "COc1ccc(Cl)c(-c2cc3[nH]c(=O)n(-c4cncc5ccoc45)c(=O)c3s2)c1",
    "signQualifier": "=",
    "IC50 (nM)": 7.94
  },
  {
    "compound": "CC(C)(C)c1cncc(-n2c(=O)[nH]c3cc(-c4ccccc4Cl)ccc3c2=O)c1",
    "signQualifier": ">",
    "IC50 (nM)": 50000
  },
  {
    "compound": "COc1cc(-c2cc3[nH]c(=O)n(-c4cncc5ccc(C)nc45)c(=O)c3s2)c(Cl)cc1F [Example 461]",
    "signQualifier": "=",
    "IC50 (nM)": 8.07
  }
]

###

tested on: SARS-CoV-2-NLuc; assay: microbe, parasite or virus in culture; format: cell-based, SARS Coronavirus 2; details: Severe acute respiratory syndrome coronavirus, 48 h; read-out: MPro EC50
pEC50: −log10 of the molar value.
This section presents compounds with their documented pEC50 values.
measureName: pEC50

[
  {
    "compound": "COc1cc(-c2cc3c(s2)c(=O)n(-c2cncc4ccccc24)c(=O)n3CCC#N)c(Cl)cc1F [Example 632]",
    "testResult": 8.51
  },
  {
    "compound": "Cn1ncc2cncc(-n3c(=O)c4sc(-c5ccc(Cl)cc5C#N)cc4n(CCC#N)c3=O)c21 [Example 824]",
    "testResult": 7.10
  },
  {
    "compound": "COc1cc(-c2cc3c(s2)c(=O)n(-c2cncc4ccccc24)c(=O)n3CC(C)C#N)c(Cl)cc1F (centres unmarked) [Example 1096]",
    "testResult": 7.80
  },
  {
    "compound": "COc1ccc(Cl)c(-c2cc3[nH]c(=O)n(-c4cncc(C)c4OCC(F)(F)F)c(=O)c3s2)c1 [Example 373]",
    "testResult": 7.33
  },
  {
    "compound": "O=c1c2ccc(-c3ccccc3Cl)cc2[nH]c(=S)n1-c1cncc2ccccc12 [Example 239]",
    "testResult": 5.74
  },
  {
    "compound": "Cc1c(F)cncc1-n1c(=O)c2sc(-c3cc(F)c(F)cc3Cl)cc2n(CCC#N)c1=O [Example 850]",
    "testResult": 7.27
  },
  {
    "compound": "Cc1c(Cl)cncc1-n1c(=O)c2sc(-c3cc(F)c(F)cc3Cl)cc2n(CCC#N)c1=O [Example 847]",
    "testResult": 7.70
  },
  {
    "compound": "COc1cc(-c2cc3c(s2)c(=O)n(-c2cncc(CO)c2)c(=O)n3CCC#N)c(Cl)cc1F [Example 1100]",
    "testResult": 7.82
  }
]

###

biological target: recombinant SARS-CoV-2 Main protease (Mpro) (Severe acute respiratory syndrome coronavirus 2 (2019-nCoV) (SARS-CoV-2)); assay: Cov Mpro Biochemical IC50 Assay; details: recombinant SARS-CoV-2 Mpro, fluorogenic peptide substrate; read-out: MPro IC50
measureName: log10 IC50 (log10 of the value in nM)

[
  {
    "chemicalSmiles": "O=C1NCc2ccc(-c3cccc(Cl)c3-c3ccc4c(=O)n(-c5cncc6ccccc56)c(=O)[nH]c4c3)cc21",
    "log10 IC50": 1.94
  },
  {
    "chemicalSmiles": "O=c1[nH]c2cc(-c3c(Cl)cccc3-c3ccc4c(c3)OC(F)(F)O4)sc2c(=O)n1-c1cncc2ccccc12",
    "log10 IC50": 2.16
  },
  {
    "chemicalSmiles": "CC1(O)CN(c2ccc3cncc(-n4c(=O)[nH]c5cc(-c6ccccc6Cl)sc5c4=O)c3c2)C1",
    "log10 IC50": 1.06
  },
  {
    "chemicalSmiles": "COc1cc(Cl)c(-c2cc3[nH]c(=O)n(-c4cncc5ccccc45)c(=O)c3s2)cc1OC",
    "log10 IC50": 0.60
  },
  {
    "chemicalSmiles": "Cc1noc(C)c1-c1cc2[nH]c(=O)n(-c3cncc(C4CC4)c3)c(=O)c2s1",
    "log10 IC50": 2.61
  },
  {
    "chemicalSmiles": "COc1ccc(Cl)c(-c2cc3[nH]c(=O)n(-c4cncc5ccc(C(F)F)cc45)c(=O)c3s2)c1",
    "log10 IC50": 1.05
  },
  {
    "chemicalSmiles": "O=c1[nH]c2cc(-c3ccccc3)ncc2c(=O)n1-c1cncc2ccccc12",
    "log10 IC50": 3.90
  }
]

###

molecular target: recombinant SARS-CoV-2 Main protease (Mpro) (Severe acute respiratory syndrome coronavirus 2 (2019-nCoV) (SARS-CoV-2)); experiment: Cov Mpro Biochemical IC50 Assay; details: recombinant SARS-CoV-2 Mpro 7.5 nM, fluorogenic peptide substrate 40 μM; read-out: MPro IC50
pIC50: −log10 of the molar value.
This section presents molecules with their documented pIC50 values.

[
  {
    "molecule": "COc1ccc(Cl)c(-c2cc3[nH]c(=O)n(-c4cncc5cc(Cl)ccc45)c(=O)c3s2)c1 [Example 591]",
    "pIC50": 7.91
  },
  {
    "molecule": "COc1cc(-c2cc3c(s2)c(=O)n(-c2cccnc2)c(=O)n3CCC#N)c(C#N)cc1F [Example 799]",
    "pIC50": 7.99
  },
  {
    "molecule": "N#CCCn1c(=O)n(-c2cncc3cccc(F)c23)c(=O)c2sc(-c3ccccc3C#N)cc21 [Example 1085]",
    "pIC50": 7.64
  },
  {
    "molecule": "N#CCCn1c(=O)n(-c2cncc3cccc(F)c23)c(=O)c2sc(-c3ccccc3Cl)cc21 [Example 1084]",
    "pIC50": 8.12
  },
  {
    "molecule": "COc1cnc(C#N)c(-c2cc3c(s2)c(=O)n(-c2cncc4ccccc24)c(=O)n3CCC#N)c1 [Example 837]",
    "pIC50": 8.04
  },
  {
    "molecule": "COc1cc(-c2cc3c(s2)c(=O)n(-c2cncc4ccccc24)c(=O)n3[C@H]2C[C@@H](C#N)C2)c(Cl)cc1F [Example 694]",
    "pIC50": 7.72
  },
  {
    "molecule": "COc1cnc(Cl)c(-c2cc3c(s2)c(=O)n(-c2cncc4cccc(F)c24)c(=O)n3CCC#N)c1 (single isomer, unassigned) [Example 1094]",
    "pIC50": 8.49
  }
]

###

target: recombinant SARS-CoV-2 Main protease (Mpro) (Severe acute respiratory syndrome coronavirus 2 (2019-nCoV) (SARS-CoV-2)); experiment: Cov Mpro Biochemical IC50 Assay; details: recombinant SARS-CoV-2 Mpro, fluorogenic peptide substrate; read-out: MPro IC50
This section presents compounds with their documented IC50 values.

[
  {
    "compound": "CS(=O)(=O)c1cncc(-c2cccc(Cl)c2-c2ccc3c(=O)n(-c4cncc5ccccc45)c(=O)[nH]c3c2)c1 [Example 203]",
    "IC50 (nM)": 11.1
  },
  {
    "compound": "Cn1ncc(-c2cccc(Cl)c2-c2ccc3c(=O)n(-c4cncc5ccccc45)c(=O)[nH]c3c2)c1C(F)(F)F [Example 272]",
    "IC50 (nM)": 212
  },
  {
    "compound": "Cc1c(C#N)cncc1-c1cccc(Cl)c1-c1ccc2c(=O)n(-c3cncc4ccccc34)c(=O)[nH]c2c1 [Example 205]",
    "IC50 (nM)": 44
  },
  {
    "compound": "COc1cncc(-n2c(=O)[nH]c3cc(-c4ccccc4Cl)ccc3c2=O)c1C [Example 141]",
    "IC50 (nM)": 6650
  },
  {
    "compound": "CC(C)c1ccccc1-c1ccc2c(=O)n(-c3cncc4ccccc34)c(=O)[nH]c2c1 [Example 52]",
    "IC50 (nM)": 12800
  },
  {
    "compound": "COc1cc(-c2cc3[nH]c(=O)n(-c4cncc5ccccc45)c(=O)c3cc2OC)c(C#N)cc1F [Example 324]",
    "IC50 (nM)": 7.02
  },
  {
    "compound": "COc1ccc(C#N)c(-c2ccc3c(=O)n(-c4cncc5ccccc45)c(=O)[nH]c3c2)c1 [Example 308]",
    "IC50 (nM)": 16.2
  },
  {
    "compound": "COCCOc1c(C)cncc1-n1c(=O)[nH]c2cc(-c3ccccc3Cl)sc2c1=O [Example 214]",
    "IC50 (nM)": 11.1
  },
  {
    "compound": "O=c1[nH]c2cc(-c3c(Cl)cccc3-c3ccc4c(c3)OCO4)ccc2c(=O)n1-c1cncc2ccccc12 [Example 356]",
    "IC50 (nM)": 130
  },
  {
    "compound": "O=c1c2sc(-c3ccccc3Cl)cc2n(CC2CCOCC2)c(=O)n1-c1cncc2ccccc12 [Example 120]",
    "IC50 (nM)": 96.8
  },
  {
    "compound": "N#Cc1ccc(OC(F)F)cc1-c1ccc2c(=O)n(-c3cncc4ccccc34)c(=O)[nH]c2c1 [Example 326]",
    "IC50 (nM)": 42.5
  },
  {
    "compound": "CNC(=O)c1cccc(-c2cccc(Cl)c2-c2ccc3c(=O)n(-c4cncc5ccccc45)c(=O)[nH]c3c2)c1 [Example 189]",
    "IC50 (nM)": 8.58
  },
  {
    "compound": "Cc1cccc(C#N)c1-c1ccc2c(=O)n(-c3cncc4ccccc34)c(=O)[nH]c2c1 [Example 96]",
    "IC50 (nM)": 151
  },
  {
    "compound": "O=c1[nH]c2cc(-c3cc(Cl)ccc3Cl)ccc2c(=O)n1-c1cncc2ccccc12 [Example 60]",
    "IC50 (nM)": 192
  },
  {
    "compound": "Cc1ccnc(Cl)c1-c1cc2[nH]c(=O)n(-c3cncc4ccccc34)c(=O)c2s1 [Example 290]",
    "IC50 (nM)": 159
  }
]
